Just for reference, paper PMC9826262 is where these values come from.

Each entry below lists one item and its recorded solubility value.
# TEST_DETAILS: Nephelometric solubility determination
# Type: physicochemical
# PROTOCOL_CONDITIONS: aqueous buffer, kinetic from dmso stock; PBS with 1 % DMSO; tested at 50 and 100 μM; room temperature; read-out: Solubility (highest concentration where no precipitate was detected)
Write down the numeric answer in µM and omit the unit.

// worked examples, solubility included
> print(dat)
                                   compound  meas.value
1  Cc1cc(-c2nc3ccc(S(=O)(=O)Nc4ccccn4)cc3[nH]2)cc(C)c1O         100
2  Cc1cc(-c2nc3ccc(S(=O)(=O)Nc4ccc(C#N)cc4)cc3[nH]2)cc(C)c1O          50

Input line: What solubility value was documented for this compound, `Cc1cc(/N=N/c2ccc(S(=O)(=O)Nc3ccc(C#N)cc3)cc2)cc(C)c1O` ?
Output line: 50

Input line: What solubility value was documented for this compound, Cc1cc(/N=N/c2ccc(S(=O)(=O)Nc3ccccn3)cc2)c(N)cc1O [7 a, MS436, reference compound] ?
Output line: 100

###

# SYSTEM_TESTED: BRD3(BD2) (Homo sapiens, UniProt Q15059)
# Construct: tested on BD1 and BD2 domains (6×His‐tagged) of each BET protein
# Sequence (Q15059 306-415 limits assumed): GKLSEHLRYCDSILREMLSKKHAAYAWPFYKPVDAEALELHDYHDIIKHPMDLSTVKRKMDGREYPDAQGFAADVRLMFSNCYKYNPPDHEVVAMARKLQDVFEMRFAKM
# TEST_DETAILS: TR-FRET displacement binding assay
# PROTOCOL_CONDITIONS: AlexaFluor647 derivative of 1
MEASURED_ATTRIBUTE: IC50 (µM)
Write down the numeric answer in µM and omit the unit.

Input line: So what IC50 did Cc1cc(-c2nc3ccc(S(=O)(=O)Nc4ccccn4)cc3[nH]2)cc(C)c1O [9 a] get with BRD3(BD2) (Homo sapiens, UniProt Q15059)?
Output line: 7

###

# SYSTEM_TESTED: BRD2(BD2) (Homo sapiens)
# Construct: tested on BD1 and BD2 domains (6×His‐tagged) of each BET protein
# Sequence (P25440 344-453 limits assumed): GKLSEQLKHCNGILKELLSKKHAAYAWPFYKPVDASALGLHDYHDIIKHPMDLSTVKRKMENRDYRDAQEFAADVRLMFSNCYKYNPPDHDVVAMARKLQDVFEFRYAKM
# TEST_DETAILS: TR-FRET displacement binding assay
# PROTOCOL_CONDITIONS: AlexaFluor647 derivative of 1
MEASURED_ATTRIBUTE: pIC50
Scale: negative log10 of molar concentration, which is what pIC50 denotes.

Input line: What pIC50 value was documented for this molecule, `Cc1cc(-c2nc3ccc(S(=O)(=O)Nc4ccccn4)cc3[nH]2)cc(C)c1O` ?
Output line: 4.66
